# Tested on: 596521-263-R-J1-PDC complex spheroid growth;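 further: spheroids exposed to compounds for 7 days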
# test_method_notes: Anticancer human tumor 596521-263-R-J1-PDC patient-derived soft tissue sarcoma cell line growth inhibition [Asc]
# condition_parameters: second compound 0.00949 µM; first compound 0.316 µM; active compounds read low
measured_metric: viability, T/C (%)
Dear colleague, please return just the value in %, with no unit written.

Below: 3 compounds and their reported viability, T/C.
compound | assay_system | viability, T/C (%)
O=C(c1cc(Cc2n[nH]c(=O)c3ccccc23)ccc1F)N1CCN(C(=O)C2CC2)CC1 + CCN1C(C(=O)NC23CCC(C(=O)O)(CC2)CC3)C(c2cccc(Cl)c2F)C2(C(=O)Nc3cc(Cl)ccc32)C12CCCCC2 | 596521-263-R-J1-PDC complex spheroid growth | 95.5
CNC(C)C(=O)NC1CN(S(=O)(=O)c2cccc(S(=O)(=O)N3CCC4CCC(C(=O)NC(c5ccccc5)c5ccccc5)N4C(=O)C(NC(=O)C(C)NC)C3)c2)CCC2CCC(C(=O)NC(c3ccccc3)c3ccccc3)N2C1=O (stereo not drawn) + CCN1C(C(=O)NC23CCC(C(=O)O)(CC2)CC3)C(c2cccc(Cl)c2F)C2(C(=O)Nc3cc(Cl)ccc32)C12CCCCC2 | 596521-263-R-J1-PDC complex spheroid growth | 87
O=C(c1ccc(F)c(F)c1Nc1ccc(I)cc1F)N1CC(O)([C@@H]2CCCCN2)C1 + CCN1C(C(=O)NC23CCC(C(=O)O)(CC2)CC3)C(c2cccc(Cl)c2F)C2(C(=O)Nc3cc(Cl)ccc32)C12CCCCC2 | 596521-263-R-J1-PDC complex spheroid growth | 58.4

Ask | Fill in: viability, T/C of C#Cc1c(F)ccc2cc(O)cc(-c3ncc4c(N5CC6CCC(C5)N6)nc(OCC56CCCN5CC(F)C6)nc4c3F)c12 (stereo not drawn) + CCN1C(C(=O)NC23CCC(C(=O)O)(CC2)CC3)C(c2cccc(Cl)c2F)C2(C(=O)Nc3cc(Cl)ccc32)C12CCCCC2 is ___
Reply | 93.7

Ask | Fill in: viability, T/C of C=CC(=O)N1CCN(c2nc(=O)n(-c3c(C)ccnc3C(C)C)c3nc(-c4c(O)cccc4F)c(F)cc23)C(C)C1 (stereo not drawn) + CCN1C(C(=O)NC23CCC(C(=O)O)(CC2)CC3)C(c2cccc(Cl)c2F)C2(C(=O)Nc3cc(Cl)ccc32)C12CCCCC2 is ___
Reply | 123

Ask | Fill in: viability, T/C of COc1c(OCCCN2CCOCC2)ccc2c3n(c(=NC(=O)c4cnc(N)nc4)nc12)CCN3 + CCN1C(C(=O)NC23CCC(C(=O)O)(CC2)CC3)C(c2cccc(Cl)c2F)C2(C(=O)Nc3cc(Cl)ccc32)C12CCCCC2 is ___
Reply | 39.1

Ask | Fill in: viability, T/C of C=C(F)C(=O)N1CCN(c2nc(OCC3CCCN3C)nc3c2CCN(c2cccc4cccc(Cl)c24)C3)CC1CC#N (stereo not drawn) + CCN1C(C(=O)NC23CCC(C(=O)O)(CC2)CC3)C(c2cccc(Cl)c2F)C2(C(=O)Nc3cc(Cl)ccc32)C12CCCCC2 is ___
Reply | 91.2

Ask | Fill in: viability, T/C of CCN1CCN(Cc2ccc(Nc3ncc(F)c(-c4cc(F)c5nc(C)n(C(C)C)c5c4)n3)nc2)CC1 + CCN1C(C(=O)NC23CCC(C(=O)O)(CC2)CC3)C(c2cccc(Cl)c2F)C2(C(=O)Nc3cc(Cl)ccc32)C12CCCCC2 is ___
Reply | 97.5
